system: 3D7-MR4 trophozoite parasite-infected RBCs; assay: Metabolomic profiling (hydrophilic metabolite changes, UHPLC-MS); type: cell-based, Plasmodium falciparum; conditions: metabolite NAD+
Reported Log2(fold change) NAD+ by item:
Reply with just the number.

Please review the following examples before continuing.
{"molecule": "CCOC(=O)C1=C(C)NC2=C(C(=O)CC(c3ccc(OC)c(OC)c3)C2)C1c1ccccc1Cl (stereo not shown) [GNF-Pf-5660, reference compound]", "reportedMeasurement": -0.1007}
{"molecule": "O=C1C(O)=C([C@H]2CC[C@H](c3ccc(Cl)cc3)CC2)C(=O)c2ccccc21 [Atovaquone, reference compound]", "reportedMeasurement": -0.0365}
{"molecule": "O=C(Nc1ccc(N2CCNCC2)cc1)c1ccn2ncc(-c3cccc(Cl)c3)c2n1.O=C(O)C(F)(F)F", "reportedMeasurement": 0.0000}

--- query ---
*Q* What does the data say about its Log2(fold change) NAD+? Entry: CN(C(=O)c1cn2c(-c3ccc(C(F)(F)F)cc3)cnc2cn1)c1ccc(C#N)cc1 [KAI407, reference compound]
*A* -0.0062
